# Setup conditions: in toluene, 278.15 K
Endpoint label: solubility (mole fraction)
Just the number, please, no unit attached.

Please indicate solubility (mole fraction) recorded for `O=c1cc(CBr)c2ccccc2[nH]1` 1.9e-05

====

# Setup conditions: in n-propanol, 278.15 K
Endpoint label: solubility (mole fraction)
Please respond with just the number, no unit label.

Please supply the value of reported solubility (mole fraction) for the item `O=c1cc(CBr)c2ccccc2[nH]1` 0.00024

====

# Setup conditions: in 2-butanone, 293.15 K
Endpoint label: solubility (mole fraction)
Enter a number only.

Output solubility (mole fraction) of `O=c1cc(CBr)c2ccccc2[nH]1` 0.000511

====

# Setup conditions: in ethanol, 283.15 K
Endpoint label: solubility (mole fraction)
Kindly provide the number alone.

Please indicate solubility (mole fraction) recorded for `O=c1cc(CBr)c2ccccc2[nH]1` 0.000206

====

# Setup conditions: in 2-butanone, 313.15 K
Endpoint label: solubility (mole fraction)
Please give the numeric answer without any surrounding text.

// fetch solubility (mole fraction) given entry `O=c1cc(CBr)c2ccccc2[nH]1` 0.000792

====

# Setup conditions: in methanol, 298.15 K
Endpoint label: solubility (mole fraction)
Write the number on its own, no unit after it.

Name the recorded solubility (mole fraction) of the item `O=c1cc(CBr)c2ccccc2[nH]1` in your answer. 0.000207

====

# Setup conditions: in ethanol, 293.15 K
Endpoint label: solubility (mole fraction)
Number, no unit, nothing else.

Input `O=c1cc(CBr)c2ccccc2[nH]1` , output reported solubility (mole fraction). 0.000247

====

# Setup conditions: in acetonitrile, 273.15 K
Endpoint label: solubility (mole fraction)
Lab note: record the figure alone, no unit after it.

Please report the measured solubility (mole fraction) for `O=c1cc(CBr)c2ccccc2[nH]1` 8e-05

====

# Setup conditions: in n-propanol, 288.15 K
Endpoint label: solubility (mole fraction)
Lab note: jot down the number only; don't add units.

Quick one: give measured solubility (mole fraction) for `O=c1cc(CBr)c2ccccc2[nH]1` 0.000283

====

# Setup conditions: in 1,4-dioxane, 298.15 K
Endpoint label: solubility (mole fraction)
// response body must contain only the number

For `O=c1cc(CBr)c2ccccc2[nH]1` , write its solubility (mole fraction). 0.000767

====

# Setup conditions: in n-butanol, 303.15 K
Endpoint label: solubility (mole fraction)
Note: the reply should be a number with no unit written.

Please indicate solubility (mole fraction) recorded for `O=c1cc(CBr)c2ccccc2[nH]1` 0.000461

====

# Setup conditions: in methanol, 308.15 K
Endpoint label: solubility (mole fraction)
Hey, just send me the number, nothing else.

Answer with the recorded solubility (mole fraction) for the compound listed here: `O=c1cc(CBr)c2ccccc2[nH]1` 0.000265

====

# Setup conditions: in toluene, 283.15 K
Endpoint label: solubility (mole fraction)

Provide only the value of recorded solubility (mole fraction) for `O=c1cc(CBr)c2ccccc2[nH]1` 2.3e-05

====

# Setup conditions: in toluene, 303.15 K
Endpoint label: solubility (mole fraction)

Give solubility (mole fraction) for `O=c1cc(CBr)c2ccccc2[nH]1` 4.3e-05

====

# Setup conditions: in toluene, 288.15 K
Endpoint label: solubility (mole fraction)

Quick one: give measured solubility (mole fraction) for `O=c1cc(CBr)c2ccccc2[nH]1` 2.8e-05

====

# Setup conditions: in 2-butanone, 278.15 K
Endpoint label: solubility (mole fraction)
Form rule: numeric answer, no unit written next to it.

Answer with the recorded solubility (mole fraction) of `O=c1cc(CBr)c2ccccc2[nH]1` only. 0.000365
